# systemUnderTest: TRAF6WTStrepII-Ubc13FH interaction (Homo sapiens)
# Construct: RING-Zincfinger1 (RZ1) domain (residues 50-159) of human TRAF6 wildtype
# Sequence (Q9Y4K3 with tags, fused parts or gaps): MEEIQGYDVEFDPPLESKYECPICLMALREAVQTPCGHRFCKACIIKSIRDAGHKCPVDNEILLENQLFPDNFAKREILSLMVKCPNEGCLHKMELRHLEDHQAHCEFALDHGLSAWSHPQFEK
# procedureDetails: ALPHAScreen TRAF6-Ubc13 interaction assay
# conditionLabel: TRAF6 100 nM, Ubc13FH 75 nM; class symbols; read-out: IC50 Alphascreen (inhibition of TRAF6-UBC13 interaction)
# Text: In order to identify small molecules that specifically target the RZ1 domain of TRAF6 and thereby prevent its binding to Ubc13, the ALPHAScreen technology (PerkinElmer) was chosen to detect TRAF6WTStrepII-Ubc13FH interaction in High-Throughput-Screenings as well as Structure Activity Relationship (SAR) analysis. For performance of an automated ALPHAScreen assay, all following components were pre-diluted in ALPHAScreen buffer (1×PBS, 0.5% BSA, 0.01% Tween-20). […]
pIC50: −log10 of the molar value.
Catalogue of pIC50 readings, one per entry.

Entry "Cc1nn(-c2ccc3nnc(C)n3n2)c(C)c1CCC(=O)N1CCN(Cc2cccc3ccccc23)CC1" : reported pIC50 = ?
≥ 4.52

Also need "Cc1nn(-c2ccc3nnc(C)n3n2)c(C)c1CCC(=O)N1CCC(CCc2ccccc2)CC1" , thanks.
≥ 5.00

Try "Cc1nn(-c2ccc3nnc(C)n3n2)c(C)c1CCC(=O)N1CCN(Cc2ccc(Cl)cc2)CC1" next.
≥ 4.52

Next:
If you can, please state the reported pIC50 value of "COc1ccc(CN2CCN(C(=O)CCc3c(C)nn(-c4ccc5nnc(C)n5n4)c3C)CC2)cc1" .
≥ 5.00

What do you have for "Cc1nn(-c2ccc3nnc(C)n3n2)c(C)c1CCC(=O)N1CCN(Cc2cccc(Br)c2)CC1" ?
≥ 5.52

Param item: "Cc1cc(CN2CCN(C(=O)CCc3c(C)nn(-c4ccc5nnc(C)n5n4)c3C)CC2)ccc1[N+](=O)[O-]"
≥ 5.52

Would you mind doing "Cc1nn(-c2ccc3nnc(C(F)(F)F)n3n2)c(C)c1CCC(=O)N1CCN(Cc2ccc(-c3nnn[nH]3)cc2Cl)CC1" as well?
≥ 5.52
